Value source: patent US12427139B2

- Tested on: NCI-H446 small-cell lung cancer cells
- method summary: CellTiter-Glo luminescent cell viability assay, NCI-H446 drug screening plate
- Assay type: cell-based
- measurement conditions: NCI-H446 cells, 72 hours, CellTiter-Glo
value type: pIC50
Convention used: pIC50 is expressed as -log10 of the molar concentration.

Recorded pIC50 (compound COC(=O)C1=C(C)NC(C)=C(C(=O)OCCN(C)Cc2ccccc2)C1c1cccc([N+](=O)[O-])c1 (stereo not shown) ): 4.74
